What stoichiometry N was measured for each of the following?
target: the molecule itself; assay: AUC; sedimentation velocity, 4 °C, 20 mM Tris pH 8.0, 100 mM NaCl, all proteins at OD280 = 0.85, 50,000 rpm, Sedfit
Answers are plain numbers.

Example entries and their recorded answers appear below.
Lookup: Name the recorded stoichiometry N for Aspartate-β-semialdehyde dehydrogenase from Trichophyton rubrum, wild type (enzyme, Aspartate-β-semialdehyde dehydrogenase (ASADH) of Trichophyton rubrum BMU01672, wild type, 362 aa as printed; theoretical monomer 38.7 kDa; The apo crystal (4ZHS) was a selenomethionine derivative; Cloned in pET-28a; also called trASADH; ASADH; source: E. coli B834(DE3) or Rosetta(DE3), purified (Ni-NTA, Hitrap Q, Superdex 200)) SKKRCGVLGATGAVGTRFILLLSQHPLLELVAVGASDRSSGKKYRDAVRWKQSAPMPAKVADLTVRCCDPAEFSDCDIIFSGLDPDAAGEIEMAFLKANFAVFSNAKNYRLDPMVPLVVPLVNAGHIDVIPAQRKHFGLDKGMLVCNSNCAVVGLVVPAKALIQKFGPIESVSMVTMQAVSGAGYPGVSSMDIFDNIVPYIPGEEGKISSEARKILGDLNSDLAGFSDQKPLQISVACNRVPVLDGHTVCASLRFVNRPPPTASQVREALREYKPEVQTLGCPSAPKMSIHVMDEVDRPQPRLDRETEGGYACTVGRIREDDSDVFDIQFVALSHNTVLGASGSSILNAESAILKGFV .
Found: 4

Lookup: For the protein trASADH with mutation F198A (enzyme, Aspartate-β-semialdehyde dehydrogenase of Trichophyton rubrum BMU01672 (362 aa) with the point mutation F198A; parent as m1; also called trASADH-F198A; Mutant F198A; source: E. coli B834(DE3) or Rosetta(DE3), purified (Ni-NTA, Hitrap Q, Superdex 200)) SKKRCGVLGATGAVGTRFILLLSQHPLLELVAVGASDRSSGKKYRDAVRWKQSAPMPAKVADLTVRCCDPAEFSDCDIIFSGLDPDAAGEIEMAFLKANFAVFSNAKNYRLDPMVPLVVPLVNAGHIDVIPAQRKHFGLDKGMLVCNSNCAVVGLVVPAKALIQKFGPIESVSMVTMQAVSGAGYPGVSSMDIADNIVPYIPGEEGKISSEARKILGDLNSDLAGFSDQKPLQISVACNRVPVLDGHTVCASLRFVNRPPPTASQVREALREYKPEVQTLGCPSAPKMSIHVMDEVDRPQPRLDRETEGGYACTVGRIREDDSDVFDIQFVALSHNTVLGASGSSILNAESAILKGFV , what stoichiometry N is on record?
Found: 4

Lookup: Can you share its stoichiometry N? I mean this protein: trASADH with the triple mutation R309A-D196A-F198A (enzyme, Aspartate-β-semialdehyde dehydrogenase of Trichophyton rubrum BMU01672 (362 aa) with R309A, D196A and F198A; parent as m1; also called trASADH R309A-D196A-F198A; dimeric triple mutant; source: E. coli B834(DE3) or Rosetta(DE3), purified (Ni-NTA, Hitrap Q, Superdex 200)) SKKRCGVLGATGAVGTRFILLLSQHPLLELVAVGASDRSSGKKYRDAVRWKQSAPMPAKVADLTVRCCDPAEFSDCDIIFSGLDPDAAGEIEMAFLKANFAVFSNAKNYRLDPMVPLVVPLVNAGHIDVIPAQRKHFGLDKGMLVCNSNCAVVGLVVPAKALIQKFGPIESVSMVTMQAVSGAGYPGVSSMAIADNIVPYIPGEEGKISSEARKILGDLNSDLAGFSDQKPLQISVACNRVPVLDGHTVCASLRFVNRPPPTASQVREALREYKPEVQTLGCPSAPKMSIHVMDEVDRPQPRLDAETEGGYACTVGRIREDDSDVFDIQFVALSHNTVLGASGSSILNAESAILKGFV
Found: 2

Now examine the next entry.
Lookup: Reported stoichiometry N, protein trASADH with mutation Y189A (enzyme, Aspartate-β-semialdehyde dehydrogenase of Trichophyton rubrum BMU01672 (362 aa) with the point mutation Y189A; parent as m1; also called trASADH-Y189A; source: E. coli B834(DE3) or Rosetta(DE3), purified (Ni-NTA, Hitrap Q, Superdex 200)) SKKRCGVLGATGAVGTRFILLLSQHPLLELVAVGASDRSSGKKYRDAVRWKQSAPMPAKVADLTVRCCDPAEFSDCDIIFSGLDPDAAGEIEMAFLKANFAVFSNAKNYRLDPMVPLVVPLVNAGHIDVIPAQRKHFGLDKGMLVCNSNCAVVGLVVPAKALIQKFGPIESVSMVTMQAVSGAGAPGVSSMDIFDNIVPYIPGEEGKISSEARKILGDLNSDLAGFSDQKPLQISVACNRVPVLDGHTVCASLRFVNRPPPTASQVREALREYKPEVQTLGCPSAPKMSIHVMDEVDRPQPRLDRETEGGYACTVGRIREDDSDVFDIQFVALSHNTVLGASGSSILNAESAILKGFV : ____
Found: 4

Data origin: paper PMC4751538
